System: HEK-293T
test.method.notes: Multiplex assay against HEK293T
Type: toxicity, cell-based
assay.conditions: human, 24 h, 1 µM, compound concentration 1 uM
property.name: Population Fragmented Nuclei (%)
# unit: % | format: bare number

*Q* Form field: reported Population Fragmented Nuclei (%) of COc1cc2nc(N3CCN(C(=O)c4ccco4)CC3)nc(N)c2cc1OC.Cl [PRAZOSIN HYDROCHLORIDE]
*A* 9

*Q* Form field: reported Population Fragmented Nuclei (%) of "COC(c1ccccc1)(c1ccccc1)[C@H](Oc1nc(C)cc(C)n1)C(=O)O"
*A* 9

*Q* Form field: reported Population Fragmented Nuclei (%) of "Cc1nc2ccc(Oc3ccc(F)cc3)cc2c(=O)n1C[C@H]1CCCN(C(C)C)C1.Cl"
*A* 11

*Q* Form field: reported Population Fragmented Nuclei (%) of "CCCCC1=NC2(CCCC2)C(=O)N1Cc1ccc(-c2ccccc2-c2nnn[nH]2)cc1"
*A* 9

*Q* Form field: reported Population Fragmented Nuclei (%) of "CC(C)C[C@H](CO)Nc1nc(S[C@@H](C)c2ccccc2)nc2nc(N)sc12"
*A* 7
